B1: library; a variant is named by its letters at N, in order (parent)
chain: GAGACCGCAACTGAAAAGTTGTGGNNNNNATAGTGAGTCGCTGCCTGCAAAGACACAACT

Variants of: B1
TEST_DESCRIPTION: ligation selection enrichment (abundance after / before one-round selection) (fold); higher = more template-directed ligation activity
STUDY_CONDITIONS: with T7Psub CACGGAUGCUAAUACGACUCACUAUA; MgCl2 25 mM; 42 °C; 4 h; pH 8.5
Threshold rule: ligation selection enrichment greater than or equal to 0.2 is Met; below that, Not met.

## Input # check: ligation selection enrichment of GAGACCGCAACTGAAAAGTTGTGGACCGAATAGTGAGTCGCTGCCTGCAAAGACACAACT [ACCGA] is greater than or equal to 0.2
## Output Met

## Input Record GAGACCGCAACTGAAAAGTTGTGGCGCCAATAGTGAGTCGCTGCCTGCAAAGACACAACT [CGCCA] ; criterion: ligation selection enrichment no lower than 0.2. Met?
## Output Not met

## Input Given GAGACCGCAACTGAAAAGTTGTGGCATGAATAGTGAGTCGCTGCCTGCAAAGACACAACT [CATGA] , state whether its ligation selection enrichment is at least 0.2.
## Output Met

## Input Form field: ligation selection enrichment at least 0.2? Entry: GAGACCGCAACTGAAAAGTTGTGGCCACGATAGTGAGTCGCTGCCTGCAAAGACACAACT [CCACG]
## Output Met

## Input Is the recorded value of ligation selection enrichment equal to or greater than 0.2 for this variant? GAGACCGCAACTGAAAAGTTGTGGGAGCGATAGTGAGTCGCTGCCTGCAAAGACACAACT [GAGCG]
## Output Met

## Input API: above_or_equal(metric=ligation selection enrichment, cutoff=0.2) for item GAGACCGCAACTGAAAAGTTGTGGGCTGTATAGTGAGTCGCTGCCTGCAAAGACACAACT [GCTGT]
## Output Not met

## Input Has GAGACCGCAACTGAAAAGTTGTGGCTGCGATAGTGAGTCGCTGCCTGCAAAGACACAACT [CTGCG] a recorded ligation selection enrichment greater than or equal to 0.2?
## Output Met

## Input Could you verify whether the entry GAGACCGCAACTGAAAAGTTGTGGGGGACATAGTGAGTCGCTGCCTGCAAAGACACAACT [GGGAC] shows ligation selection enrichment of no less than 0.2?
## Output Met

## Input Does GAGACCGCAACTGAAAAGTTGTGGAAATAATAGTGAGTCGCTGCCTGCAAAGACACAACT [AAATA] have a reported ligation selection enrichment of at least 0.2?
## Output Not met
